B1: Homeobox protein cut-like 1, residues 548 to 629; numbered along this chain, P39880 (parent)
chain: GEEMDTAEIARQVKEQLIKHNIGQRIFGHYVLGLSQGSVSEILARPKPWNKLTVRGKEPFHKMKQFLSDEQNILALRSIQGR

Variants of: B1
method_summary: abundance fitness (aPCA) (normalised: wild type 0, dead -1); higher = more abundant; growth selection in yeast, the domain comes from the species named
condition: Homo sapiens
Decide using abundance fitness: a value greater than or equal to -0.09 is MET, a smaller one is NOT MET.

Solved entries (count: 6):
{"mutation_key": "E70Q", "discrete_label": "MET"}
{"mutation_key": "T53H", "discrete_label": "NOT MET"}
{"mutation_key": "Q71M", "discrete_label": "NOT MET"}
{"mutation_key": "R77E", "discrete_label": "MET"}
{"mutation_key": "I73H", "discrete_label": "NOT MET"}
{"mutation_key": "G23N", "discrete_label": "MET"}

Please tell me: is the variant H20A at or over -0.09 in terms of abundance fitness?
NOT MET

And the next one, L76G ?
NOT MET

And the next one, G23Y ?
NOT MET
